These entries and their values trace back to patent US20130287781A1.

# kon listing for each entry below
- study_target: T1, GST-human NOGO-A56 (human)
- T1 construct: Expressed in E. coli BL21 from pGEX-6P1 and purified on glutathione-sepharose; the GST tag is part of the protein in the assays; also called GST-Nogo-A 5+6; GST Nogo-A 5 + 6
- T1 sequence (chain, as listed by the source limits assumed): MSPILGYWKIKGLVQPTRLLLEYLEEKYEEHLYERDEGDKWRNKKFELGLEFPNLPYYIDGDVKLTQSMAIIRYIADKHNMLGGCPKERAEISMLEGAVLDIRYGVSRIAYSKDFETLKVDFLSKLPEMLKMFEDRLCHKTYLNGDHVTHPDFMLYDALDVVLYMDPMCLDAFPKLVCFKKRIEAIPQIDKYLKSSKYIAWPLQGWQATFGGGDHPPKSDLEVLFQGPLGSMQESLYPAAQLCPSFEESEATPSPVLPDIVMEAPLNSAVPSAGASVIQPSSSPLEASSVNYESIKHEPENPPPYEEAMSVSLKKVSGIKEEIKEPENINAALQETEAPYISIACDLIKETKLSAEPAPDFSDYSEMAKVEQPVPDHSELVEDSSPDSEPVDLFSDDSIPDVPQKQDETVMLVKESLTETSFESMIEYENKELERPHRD
- run_description: SPR (Biacore), GST-human NOGO-A56 amine-coupled to CM5, antibody flowed over, 37 C
measured_endpoint: kon (M⁻¹ s⁻¹)

[[record]]
binder = "H20L16 (antibody, human IgG1, kappa, V domains shown, IgG1 (L235A, G237A) / kappa; CAMPATH-1H signal (1-19) left out) VH: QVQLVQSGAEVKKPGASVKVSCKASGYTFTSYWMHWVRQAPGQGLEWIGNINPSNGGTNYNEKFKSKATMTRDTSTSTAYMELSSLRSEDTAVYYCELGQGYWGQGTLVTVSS VL: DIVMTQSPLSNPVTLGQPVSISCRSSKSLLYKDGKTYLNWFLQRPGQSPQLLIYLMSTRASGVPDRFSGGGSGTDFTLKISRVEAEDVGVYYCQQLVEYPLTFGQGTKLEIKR"
data_value = "7.17e+06"

[[record]]
binder = "H16L16 (antibody, human IgG1, kappa, V domains shown, IgG1 (L235A, G237A) / kappa; CAMPATH-1H signal (1-19) left out) VH: QVQLVQSGAEVKKPGASVKVSCKASGYTFTSYWMHWVKQRPGQGLEWIGNINPSNGGTNYNEKFKSKATLTVDKSTSTAYMELSSLRSEDTAVYYCELGQGYWGQGTLVTVSS VL: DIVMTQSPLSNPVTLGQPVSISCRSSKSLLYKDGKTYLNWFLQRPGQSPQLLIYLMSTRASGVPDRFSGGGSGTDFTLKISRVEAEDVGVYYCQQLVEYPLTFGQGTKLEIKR"
data_value = "5.31e+06"

[[record]]
binder = "HcLc (chimera of 2A10: murine 2A10 VH and VL with human IgG constant regions) (antibody, V domains shown, also called chimeric antibody; chimeric form of the parental antibody) VH: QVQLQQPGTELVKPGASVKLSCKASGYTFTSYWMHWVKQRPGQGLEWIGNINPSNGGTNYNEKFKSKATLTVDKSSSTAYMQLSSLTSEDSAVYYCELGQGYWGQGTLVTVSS VL: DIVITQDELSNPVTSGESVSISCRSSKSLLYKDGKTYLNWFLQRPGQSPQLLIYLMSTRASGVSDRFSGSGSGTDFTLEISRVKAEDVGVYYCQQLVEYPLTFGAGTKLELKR"
data_value = "5.08e+06"

